B1: Pituitary-specific positive transcription factor 1, residues 130 to 198; numbered along this chain, P28069 (parent)
chain: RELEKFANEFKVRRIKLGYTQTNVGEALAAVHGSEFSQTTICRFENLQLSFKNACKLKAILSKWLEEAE

# Variants of: B1
# assay text: abundance fitness (aPCA) (normalised: wild type 0, dead -1); higher = more abundant; growth selection in yeast, the domain comes from the species named
# measurement context: Homo sapiens
readout: abundance fitness
Returns: the value as a bare number; no unit string appended.

> print(dat)
   mutation.string            readout  observed
1             G33P  abundance fitness    -0.393

Short answer for `E66A` : abundance fitness was -0.054

Measured abundance fitness of `L3K` : -0.718
